# TARGET SYSTEM: T1, mouse MAdCAM expressed on cells (mouse, UniProt Q61826 22-405)
# T1 construct: whole, on cells
# T1 sequence (looked up): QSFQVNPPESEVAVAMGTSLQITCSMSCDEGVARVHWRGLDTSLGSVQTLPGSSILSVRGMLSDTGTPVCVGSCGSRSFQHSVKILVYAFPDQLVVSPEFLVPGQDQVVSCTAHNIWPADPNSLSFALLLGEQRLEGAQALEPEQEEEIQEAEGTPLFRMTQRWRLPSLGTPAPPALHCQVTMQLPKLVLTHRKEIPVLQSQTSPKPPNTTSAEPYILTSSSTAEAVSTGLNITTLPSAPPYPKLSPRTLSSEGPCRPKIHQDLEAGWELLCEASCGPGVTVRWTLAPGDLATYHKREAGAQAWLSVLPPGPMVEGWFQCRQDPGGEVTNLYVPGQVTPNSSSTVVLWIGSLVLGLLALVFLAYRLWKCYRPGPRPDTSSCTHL
# METHOD NOTES: cell binding
TEST READOUT: binding result

BINDER	binding result
MAdCAM Antibody Table 2 Clone 10 (antibody, human IgG1, V domains shown) VH: EVQLLESGGGLVQPGGSLRLSCAASGFMFGDYAMHWVRQAPGKGLEWVSAISGSGGSTYYADSVKGRFTISRDNSKNTLYLQMNSLRAEDTAVYYCAKDLVVAGIWYFDLWGRGTLVTVSS VL: DIQMTQSPSSLSASVGDRVTITCRASQGISNNLNWYQQKPGKAPKLLIYDASSLESGVPSRFSGSGSGTDFTLTISSLQPEDFATYYCQQTHSFPSTFGQGTKLEIK	binds
MAdCAM Antibody Table 2 Clone 18 (antibody, human IgG1, V domains shown) VH: QVQLVQSGAEVKKPGSSVKVSCKASGYTFTNYYMHWVRQAPGQGLEWMGGIIPIVDRVKYAQKFQGRVTITADESTSTAYMELSSLRSEDTAVYYCAKGRYTVNYYYGMDVWGQGTTVTVSS VL: DIQMTQSPSSLSASVGDRVTITCQANQDISNYLNWYQQKPGKAPKLLIYRASKLEAGVPSRFSGSGSGTDFTLTISSLQPEDFATYYCQQSSEIPYSFGQGTKLEIK	no binding
MAdCAM Antibody Table 2 Clone 1 (antibody, human IgG1, V domains shown) VH: EVQLLESGGGLVQPGGSLRLSCAASGFTFSSYGMHWVRQAPGKGLEWVAVISDDGSDKYYADSVKGRFTISRDNSKNTLYLQMNSLRAEDTAVYYCTTSKYYYYYGMDVWGQGTTVTVSS VL: DIQMTQSPSSLSASVGDRVTITCQASQDISKSLNWYQQKPGKAPKLLIYAASSLQSGVPSRFSGSGSGTDFTLTISSLQPEDFATYYCQQGYSTPLTFGGGTKVEIK	binds
MAdCAM Antibody Table 2 Clone 74 (antibody, human IgG1, V domains shown) VH: QVQLVQSGAEVKKPGASVKVSCKASGYTFTGYYMHWVRQAPGQGLEWMGIINPSGGNTKYAQKFQGRVTMTRDTSTSTVYMELSSLRSEDTAVYYCTTADYYYYMDVWGKGTTVTVSS VL: DIQMTQSPSSLSASVGDRVTITCRASQGISNYLAWYQQKPGKAPKLLIYAASSLQSGVPSRFSGSGSGTDFTLTISSLQPEDFATYYCQQYYSNADFGQGTKVEIK	no binding
MAdCAM Antibody Table 2 Clone 83 (antibody, human IgG1, V domains shown) VH: EVQLLESGGGLVQPGGSLRLSCAASGFTFSSYWMHWVRQAPGKGLEWVAAISYDGKYKDYEDSVKGRFTISRDNSKNTLYLQMNSLRAEDTAVYYCARENKQWLASFDYWGQGTLVTVSS VL: DIQMTQSPSSLSASVGDRVTITCQASQDISNFVNWYQQKPGKAPKLLIYAANLRSGVPSRFSGSGSGTDFTLTISSLQPEDFATYYCQQANSFPVTFGPGTKVDIK	binds

Okay, now this binder:
Consider the binder shown here: MAdCAM Antibody Table 2 Clone 22 (antibody, human IgG1, V domains shown) VH: EVQLLESGGGLVQPGGSLRLSCAASGFTFDDYAMHWVRQAPGKGLEWVSGISWNSGSIGYADSVKGRFTISRDNSKNTLYLQMNSLRAEDTAVYYCAKDIVAAGHYYYGMDVWGQGTTVTVSS VL: DIQMTQSPSSLSASVGDRVTITCQASQDISNYLNWYQQKPGKAPKLLIYDASNLETGVPSRFSGSGSGTDFTLTISSLQPEDFATYYCQQSYSTPLTFGGGTKVEIK What is its recorded binding result?
no binding

// data source = patent US20210206856A1
